Taken from ChEMBL document CHEMBL1144604.

# Target entity: Autotaxin (Homo sapiens)
# Test description: Inhibition of human recombinant ATX at 10 uM after 16 hrs; values are per cent of control
Property name: residual activity (%)

CCCCCCCCCCCCCCCC(=O)N[C@@H](Cc1ccc(OCc2ccccn2)cc1)C(O)CP(=O)(O)O (single isomer, unassigned; diastereomer b) :: 74
CCCCCCCCCCCCCC(=O)N[C@H](Cc1ccc(OCc2ncc(C)c(OC)c2C)cc1)C(O)CP(=O)(O)O (single isomer, unassigned; diastereomer a) :: 99
CCCCCCCCCCCCCCCC(=O)N[C@H](Cc1ccc(OC)cc1)C(O)CP(=O)(O)O (single isomer, unassigned; diastereomer a) :: 78
CCCCCCCCCCCCCCCC(=O)N[C@H](Cc1ccc(OCc2ccccc2)cc1)C(O)CP(=O)(O)O (single isomer, unassigned; diastereomer b) :: 81
CCCCCCCCCCCCCCCC(=O)N[C@H](Cc1ccc(OCCCCC)cc1)C(O)CP(=O)(O)O (single isomer, unassigned; diastereomer a) :: 85
CCCCCCCCCCCCCCCC(=O)N[C@@H](Cc1ccc(OCc2ccccc2)cc1)C(=O)CP(=O)(O)O :: 71
CCCCCCCCCCCCCCCC(=O)N[C@@H](Cc1ccc(OCc2cc(OCC(F)(F)F)ccn2)cc1)C(O)CP(=O)(O)O (single isomer, unassigned; diastereomer b) :: 83
CCCCCCCCCC(=O)N[C@H](Cc1ccc(OCc2ncc(C)c(OC)c2C)cc1)C(O)CP(=O)(O)O (stereo not given in full) :: 86
CCCCCCCCCCCCCCCC(=O)N[C@H](Cc1ccc(OCCC(C)C)cc1)C(=O)CP(=O)(O)O :: 101
CCCCCCCCCCCCCCCC(=O)N[C@@H](Cc1ccc(OCc2cc(OCC(F)(F)F)ccn2)cc1)C(O)CP(=O)(O)O (stereo in doubt; f3) :: 80

###

# Target entity: UniProt Q13822
# Test description: Inhibition of human recombinant ATX at 10 uM after 16 hrs; values are per cent of control
Property name: residual activity (%)

CCCCCCCCCCCCCCCC(=O)N[C@H](Cc1ccc(OCCCCC)cc1)C(O)CP(=O)(O)O (single isomer, unassigned; diastereomer b) :: 82
CCCCCCCCCCCCCCCC(=O)N[C@@H](Cc1ccc(OCCC(C)C)cc1)C(O)CP(=O)(O)O (stereo in doubt; f33) :: 104
CCCCCCCCCCCCCCCC(=O)N[C@H](Cc1ccc(OC)cc1)C(O)CP(=O)(O)O (stereo in doubt; f20) :: 84
CCCCCCCCCCCCCCCC(=O)N[C@H](Cc1ccc(OC)cc1)C(=O)CP(=O)(O)O :: 71
CCCCCCCCCCCCCCCC(=O)N[C@H](Cc1ccc(OCc2ncc(C)c(OC)c2C)cc1)C(O)CP(=O)(O)O (single isomer, unassigned; diastereomer b) :: 64
CCCCCCCCCCCCCCCC(=O)N[C@H](Cc1ccc(OCc2ccccc2)cc1)C(=O)CP(=O)(O)O :: 82
CCCCCCCCCCCCCCCC(=O)N[C@H](Cc1ccc(OCCC)cc1)C(=O)CP(=O)(O)O :: 97
CCCCCCCCCCCCCCCC(=O)N[C@H](Cc1ccc(OCCC(C)C)cc1)C(O)CP(=O)(O)O (single isomer, unassigned; diastereomer b) :: 104
CCCCCCCCCCCCCCCC(=O)N[C@H](Cc1ccc(OCc2ncc(C)c(OC)c2C)cc1)C(=O)CP(=O)(O)O :: 74
CCCCCCCCCCCCCCCC(=O)N[C@@H](Cc1ccc(OCc2ccccc2)cc1)C(O)CP(=O)(O)O (single isomer, unassigned; diastereomer b) :: 83
CCCCCCCCCCCCCCCC(=O)N[C@H](Cc1ccc(OCc2cc(OCC(F)(F)F)ccn2)cc1)C(O)CP(=O)(O)O (single isomer, unassigned; diastereomer a) :: 84
CCCCCCCCCCCCCCCC(=O)N[C@@H](Cc1ccc(OCCCCC)cc1)C(O)CP(=O)(O)O (single isomer, unassigned; diastereomer a) :: 83
CCCCCCCCCCCCCCCC(=O)N[C@H](Cc1ccc(OCCC)cc1)C(O)CP(=O)(O)O (single isomer, unassigned; diastereomer b) :: 108
CCCCCCCCCCCCCCCC(=O)N[C@H](Cc1ccc(OCCC)cc1)C(O)CP(=O)(O)O (stereo in doubt) :: 79
CCCCCCCCCCCCCCCC(=O)N[C@H](Cc1ccc(OCc2ccccn2)cc1)C(=O)CP(=O)(O)O :: 68
CCCCCCCC/C=C/CCCCCCCC(=O)N[C@@H](Cc1ccc(OCc2ncc(C)c(OC)c2C)cc1)C(O)CP(=O)(O)O (stereo in doubt; f42) :: 68
CCCCCCCCCCCCCCCC(=O)N[C@@H](Cc1ccc(OCc2ccccn2)cc1)C(O)CP(=O)(O)O (single isomer, unassigned; diastereomer a) :: 81
CCCCCCCCCCCCCCCC(=O)N[C@@H](Cc1ccc(OCCCCC)cc1)C(O)CP(=O)(O)O (single isomer, unassigned; diastereomer b) :: 90

###

# Target entity: Autotaxin (Homo sapiens)
# Test description: Inhibition of human recombinant ATX at 100 uM after 16 hrs; values are per cent of control
Property name: residual activity (%)

Worked cases, answers included:
CCCCCCCCCCCCCCCC(=O)N[C@H](Cc1ccc(OCc2ncc(C)c(OC)c2C)cc1)C(O)CP(=O)(O)O (single isomer, unassigned; diastereomer a) :: 63
CCCCCCCCCCCCCCCC(=O)N[C@H](Cc1ccc(OCc2ccccn2)cc1)C(=O)CP(=O)(O)O :: 52
CCCCCCCCCCCCCCCC(=O)N[C@H](Cc1ccc(OCc2ccccn2)cc1)C(O)CP(=O)(O)O (single isomer, unassigned; diastereomer b) :: 69
CCCCCCCCCCCCCCCC(=O)N[C@@H](Cc1ccc(OCc2ccccn2)cc1)C(O)CP(=O)(O)O (single isomer, unassigned; diastereomer a) :: 52
CCCCCCCCCCCCCCCC(=O)N[C@H](Cc1ccc(OCc2cc(OCC(F)(F)F)ccn2)cc1)C(O)CP(=O)(O)O (single isomer, unassigned; diastereomer a) :: 55
CCCCCCCCCCCCCCCC(=O)N[C@H](Cc1ccc(OCCC)cc1)C(O)CP(=O)(O)O (single isomer, unassigned; diastereomer b) :: 90
CCCCCCCCCCCCCCCC(=O)N[C@H](Cc1ccc(OCc2ccccc2)cc1)C(O)CP(=O)(O)O (single isomer, unassigned; diastereomer b) :: 83
CCCCCCCCCCCCCCCC(=O)N[C@H](Cc1ccc(OC)cc1)C(O)CP(=O)(O)O (single isomer, unassigned; diastereomer a) :: 57
CCCCCCCCCCCCCCCC(=O)N[C@H](Cc1ccc(OCCC)cc1)C(O)CP(=O)(O)O (stereo in doubt) :: 72
CCCCCCCCCCCCCCCC(=O)N[C@@H](Cc1ccc(OCc2ccccc2)cc1)C(O)CP(=O)(O)O (single isomer, unassigned; diastereomer a) :: 68

(A) CCCCCCCCCCCCCCCC(=O)N[C@@H](Cc1ccc(OCc2ccccc2)cc1)C(O)CP(=O)(O)O (single isomer, unassigned; diastereomer b)
(B) CCCCCCCCCCCCCCCC(=O)N[C@@H](Cc1ccc(OCc2ccccn2)cc1)C(=O)CP(=O)(O)O
(C) CCCCCCCCCCCCCCCC(=O)N[C@@H](Cc1ccc(OCc2cc(OCC(F)(F)F)ccn2)cc1)C(O)CP(=O)(O)O (stereo in doubt; f3)
(D) CCCCCCCCCCCCCCCC(=O)N[C@@H](Cc1ccc(OCc2ncc(C)c(OC)c2C)cc1)C(O)CP(=O)(O)O (stereo in doubt; f17)
[ask] Your job: order these 4 records by residual activity, ascending. Show the ranking through the labels, in the order asked for.
[reply] D, C, B, A
(D: 6%, C: 32%, B: 50%, A: 78%)

###

# Target entity: Autotaxin (Homo sapiens) (UniProt Q13822)
# Test description: Inhibition of human recombinant ATX at 100 uM after 16 hrs; values are per cent of control
Property name: residual activity (%)

CCCCCCCCCCCCCCCC(=O)N[C@@H](Cc1ccc(OCCCCC)cc1)C(O)CP(=O)(O)O (single isomer, unassigned; diastereomer b) :: 70
CCCCCCCCCCCCCCCC(=O)N[C@@H](Cc1ccc(OCCC(C)C)cc1)C(O)CP(=O)(O)O (stereo in doubt; f34) :: 91
CCCCCCCCCCCCCCCC(=O)N[C@@H](Cc1ccc(OC)cc1)C(O)CP(=O)(O)O (stereo in doubt; f22) :: 69
